Assay: JHH-DIPG-1 glioma cell viability, MIPE5.0 library, CellTiter-Glo luminescence, qHTS (AID 1347067);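 also: cells exposed to compound for 48 hours before readout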
Details: JHH-DIPG-1 glioma viability, CellTiter-Glo ATP luminescence
Results filed as inconclusive are left out. Activity calls are given as the source filed them. The limit is not given here; nearly all actives have AC50 up to about 26 µM.
In this exercise, the only acceptable responses are 1 = active, 0 = inactive

I would be grateful if you could indicate the recorded call for CCCS(=O)(=O)c1nc(NC2CC2)cc(-c2ccc3c(ccn3C3CC(C)(C)NC(C)(C)C3)c2)n1 .
1

For C=CC(=O)Nc1ccc2ncnc(Nc3cccc(Br)c3)c2c1 , what call appears in the results of this test?
1

What is the recorded call for this molecule in the test? Cc1[nH]c(/C=C2\C(=O)Nc3ccc(S(=O)(=O)N(C)c4cccc(Cl)c4)cc32)c(C)c1C(=O)N1CCN(C)CC1
1

Hello, I am checking results. What call was entered for O=C(Nc1cccc(C(F)(F)F)c1)Nc1cc(S(=O)(=O)NC2CC2)ccc1-c1ccsc1 ?
0

Give the logged outcome of this assay for the following molecule: Clc1cccc(-c2ccc(-c3nnc(CCCc4ccc5cccnc5n4)o3)cc2)c1
0

Test call, this molecule: CN(C)c1ccc(-c2nc3ncc(Cl)c(N4CCN(CC(=O)Nc5nccs5)CC4)c3[nH]2)cc1
1

Called result for Cc1cc(Nc2ncc(Cl)c(Nc3ccccc3S(=O)(=O)C(C)C)n2)c(OC(C)C)cc1C1CCNCC1
1

// return assay outcome for CCC[C@H](N[C@H]1CCc2cc(F)cc(F)c2C1)C(=O)Nc1cn(C(C)(C)CNCC(C)(C)C)cn1
1

Would you mind telling me which call this test gave Cn1cc(-c2ccc3ncc(Cc4ccc5ncccc5c4)n3n2)cn1 ?
0

Numbers sourced from PubChem BioAssay.
